The following molecules are listed with their measured AC50 values.
# targetEntity: FAD-linked sulfhydryl oxidase ALR (Homo sapiens, UniProt P55789)
# Sequence (P55789 whole entry): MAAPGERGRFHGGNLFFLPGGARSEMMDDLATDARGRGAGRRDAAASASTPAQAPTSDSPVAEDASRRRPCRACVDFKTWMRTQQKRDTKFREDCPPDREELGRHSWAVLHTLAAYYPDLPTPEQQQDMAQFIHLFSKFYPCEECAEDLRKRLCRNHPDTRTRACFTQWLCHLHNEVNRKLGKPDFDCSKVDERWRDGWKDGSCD
# assay: inhibitors of human ALR sulfhydryl oxidase, dose response, biochemical, H2O2 detection, luminescence, cherry-pick (AID 493248)
Activity calls are given as the source filed them.
readoutType: AC50

>  <molecule>
Nc1cccc(Nc2ccccc2)c1

>  <obsValue>
2500 nM (active)

$$$$
>  <molecule>
Oc1ccc(CC2CC3CCN2CC3)cc1O (stereo unspecified)

>  <obsValue>
3810 nM (active)

$$$$
>  <molecule>
Cc1cccc(N/N=C/c2ccc(O)c(O)c2O)c1

>  <obsValue>
1360 nM (active)

$$$$
>  <molecule>
Cc1[nH]c2ccccc2c1CCNS(=O)(=O)c1ccc(S(N)(=O)=O)cc1

>  <obsValue>
2770 nM (active)

$$$$
>  <molecule>
Fc1ccc(-n2nnnc2S)cc1N1CCCC1

>  <obsValue>
5210 nM (active)

$$$$
>  <molecule>
Cc1ccc(NC(=O)c2cccc(C(=O)Nc3ccc(C)cc3C(=O)O)c2)c(C(=O)O)c1

>  <obsValue>
2110 nM (active)

$$$$

====

# targetEntity: Heat shock factor protein 1 (Mus musculus, UniProt P38532)
# Sequence (P38532 whole entry): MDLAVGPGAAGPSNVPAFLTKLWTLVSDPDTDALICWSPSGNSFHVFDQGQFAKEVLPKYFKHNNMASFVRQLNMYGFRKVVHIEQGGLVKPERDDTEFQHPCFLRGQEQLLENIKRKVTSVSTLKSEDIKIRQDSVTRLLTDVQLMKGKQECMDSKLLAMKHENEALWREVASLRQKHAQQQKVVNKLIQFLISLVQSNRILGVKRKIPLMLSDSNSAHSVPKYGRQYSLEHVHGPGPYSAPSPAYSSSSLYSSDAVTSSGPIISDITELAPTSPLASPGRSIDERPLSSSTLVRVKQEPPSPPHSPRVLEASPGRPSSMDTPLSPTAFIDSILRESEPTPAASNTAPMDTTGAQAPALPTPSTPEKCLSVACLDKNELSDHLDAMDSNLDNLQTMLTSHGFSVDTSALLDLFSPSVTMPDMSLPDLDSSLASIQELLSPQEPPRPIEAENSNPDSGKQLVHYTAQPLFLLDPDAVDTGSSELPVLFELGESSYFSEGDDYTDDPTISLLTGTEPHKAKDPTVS
# assay: HSF1 potentiators in luciferase reporter cells, confirmation, cell-based, NIH3T3, luminescence, dose retest (AID 435004);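 also: stress induced by proteasome inhibitor MG132 added 30 min after compound; luciferase reporter driven by HSF1 response element in NIH3T3 cells; actives raise luminescence as potentiators of the MG132 stress response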
# Type: functional
Calls of active or inactive are those of the source.
readoutType: EC50

>  <compound>
CCN(C(=O)COC(=O)c1c2c(nc3ccccc13)/C(=C/c1ccccc1)CC(C)C2)C1CCS(=O)(=O)C1 (stereo not given)

>  <targetEntity>
Heat shock factor protein 1 (Mus musculus, UniProt P38532)

>  <readoutType>
EC50

>  <obsValue>
14.3 µM (active)

$$$$
>  <compound>
Cn1nnnc1SCCNC/C=C/c1ccccc1

>  <targetEntity>
Heat shock factor protein 1 (Mus musculus, UniProt P38532)

>  <readoutType>
EC50

>  <obsValue>
> 260 µM (inactive)

$$$$
>  <compound>
CSc1nc(S(=O)(=O)c2ccc(C)cc2)c(Cl)s1

>  <targetEntity>
Heat shock factor protein 1 (Mus musculus, UniProt P38532)

>  <readoutType>
EC50

>  <obsValue>
> 260 µM (inactive)

$$$$
>  <compound>
Cc1cc(C)cc(Cn2ncc(Cl)c(Cl)c2=O)c1

>  <targetEntity>
Heat shock factor protein 1 (Mus musculus, UniProt P38532)

>  <readoutType>
EC50

>  <obsValue>
21.7 µM (active)

$$$$
>  <compound>
Cc1cc(C)c2cc(C(=O)N(C)C3CCN(C)CC3)[nH]c2c1

>  <targetEntity>
Heat shock factor protein 1 (Mus musculus, UniProt P38532)

>  <readoutType>
EC50

>  <obsValue>
> 260 µM (inactive)

$$$$
>  <compound>
Cc1nc(-c2ccc(Cl)cc2)sc1C(=O)CBr

>  <targetEntity>
Heat shock factor protein 1 (Mus musculus, UniProt P38532)

>  <readoutType>
EC50

>  <obsValue>
70.2 µM (active)

$$$$
>  <compound>
CCOC(=O)CC(NC(=O)C1c2ccccc2Oc2ccccc21)c1ccccc1Cl (stereo not given)

>  <targetEntity>
Heat shock factor protein 1 (Mus musculus, UniProt P38532)

>  <readoutType>
EC50

>  <obsValue>
> 260 µM (inactive)

$$$$
>  <compound>
O=C(CSC1=NCCN1)Nc1cccc(C(F)(F)F)c1

>  <targetEntity>
Heat shock factor protein 1 (Mus musculus, UniProt P38532)

>  <readoutType>
EC50

>  <obsValue>
> 260 µM (inactive)

$$$$
>  <compound>
CCN(CC)CCn1nc2c3c(cccc3c1=O)-c1ccccc1-2

>  <targetEntity>
Heat shock factor protein 1 (Mus musculus, UniProt P38532)

>  <readoutType>
EC50

>  <obsValue>
> 260 µM (inactive)

$$$$
>  <compound>
O=C(CF)NC(NC(S)=Nc1ccccc1O)C(Cl)(Cl)Cl (stereo not given)

>  <targetEntity>
Heat shock factor protein 1 (Mus musculus, UniProt P38532)

>  <readoutType>
EC50

>  <obsValue>
> 260 µM (inactive)

$$$$
